tested on: ATP; assay: switch fluorescence ratio, 500 uM ATP over buffer (Cy3 cluster intensity, sum of 5 cycles each) (fold (ratio)); higher = stronger signal-on switching upon ATP binding; sequences stand for … in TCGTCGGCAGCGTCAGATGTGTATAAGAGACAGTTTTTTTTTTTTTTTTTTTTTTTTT…TC; conditions: aptamer strand: ATP DNA aptamer (quencher-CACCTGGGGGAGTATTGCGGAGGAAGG + anchor), 100 nM annealed; ATP concentration: 500 uM;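 also: ATP exposure 15 min at 22 °C before imaging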
Classification field: enter Yes for switch fluorescence ratio values not below 1, No for values below it.

Is switch fluorescence ratio at least 1? Consider `GATGATGGTG`
No

Test whether the sequence `CTCGTTGCTT` records switch fluorescence ratio of 1 or higher.
Yes

# check: switch fluorescence ratio of `GTTCGACGGC` is greater than or equal to 1
Yes

hey, is switch fluorescence ratio for this one >= 1? `TTCTCAGCAA`
Yes

Could you please find out whether `GGGATTACGT` has switch fluorescence ratio that meets 1 or exceeds it?
Yes

Check the entry `TAATAGGGTG` : does switch fluorescence ratio equal or exceed 1?
Yes

Record `TATTGTTTGA` ; criterion: switch fluorescence ratio no lower than 1. Met?
No
